Assay: Foam height test, Standard Test Method for Foaming Properties of Surface-Active Agents (ASTM 1173-07)
Type: physicochemical
Details: 1 g/L (0.1 weight %), t = 4 min, 49° C.
value_kind: Foam height at time t = 4 (mm)

Answered examples (3):
molecule=CCCCCCCCCCCCOC(=O)CCC[N+](C)(C)CCCS(=O)(=O)[O-] numeric_value=147
molecule="CCCCCCCCCCCCOC(=O)CCCC[N+](C)(C)CC(O)CS(=O)(=O)[O-] (stereo not drawn)" numeric_value=170
molecule="CCCCCCCCCCCCNC(=O)CCCC[N+](C)(C)CC(O)CS(=O)(=O)[O-] (stereo not drawn)" numeric_value=149

[P] CCCCCCCCCCCCNC(=O)CCC[N+](C)(C)CCCS(=O)(=O)[O-]
[Q] CCCCCCCCCCCCNC(=O)CCC[N+](C)(C)CC(O)CS(=O)(=O)[O-] (stereo not drawn)
Lab note: record which item had the higher Foam height at time t = 4, P or Q . Respond using the label that marks the chosen record. Q
(Q: 151 mm, P: 95 mm)
